Test system: E. coli MMX TolC parent strain
Assay: MIC determination
Assay type: cell-based
Details: Escherichia coli; E. coli MMX TolC parent strain; read-out: MIC

{"compound": "CSC1O[C@H]([C@H](NC(=O)[C@H]2NC[C@@H]3C[C@@H](c4ccc(F)cc4)CCO[C@H]32)[C@H](C)Cl)C(O)[C@@H](O)[C@H]1O (stereo partly shown) [FSA-507061]", "MIC": "> 64 µg/mL"}
{"compound": "CSC1O[C@H]([C@H](NC(=O)[C@H]2NC[C@@H]3CC(c4ccc(C(F)(F)F)cc4)=CCO[C@H]32)[C@H](C)Cl)C(O)[C@@H](O)[C@H]1O (stereo partly shown) [FSA-507060]", "MIC": "64 µg/mL"}
{"compound": "CSC1O[C@H]([C@H](NC(=O)[C@H]2NC[C@@H]3C[C@H]4C[C@H]4CO[C@H]32)[C@H](C)Cl)C(O)C(O)[C@H]1O (stereo in doubt) [FSA-507007]", "MIC": "> 64 µg/mL"}
{"compound": "CSC1O[C@H]([C@H](NC(=O)[C@H]2NC[C@@H]3CC(F)(F)CCO[C@H]32)[C@H](C)Cl)C(O)[C@@H](O)[C@H]1O (stereo partly shown) [FSA-24036]", "MIC": "> 64 µg/mL"}
